Tested on: non-reducing saccharide-forming enzyme
Type: biochemical, Rhizobium sp. M-11
Recorded conditions: non-reducing saccharide-forming enzyme, 48 h, pH 7
Reported endpoint: Percentage of remaining substrate in reaction product (%)

1: OC[C@H]1O[C@H](O[C@H]2[C@H](O)[C@@H](O)C(O)O[C@@H]2CO)[C@H](O)[C@@H](O)[C@@H]1O (mixture of isomers)
2: OC[C@H]1O[C@H](O[C@H]2[C@H](O)[C@@H](O)[C@@H](O[C@H]3[C@H](O)[C@@H](O)[C@@H](O[C@H]4[C@H](O)[C@@H](O)C(O)O[C@@H]4CO)O[C@@H]3CO)O[C@@H]2CO)[C@H](O)[C@@H](O)[C@@H]1O (stereo partly shown)
Compare Percentage of remaining substrate in reaction product: is it lower for 1 or for 2 ? Return value: the label identifying the chosen record. 2

I: OC[C@H]1OC(O)[C@H](O)[C@@H](O)[C@@H]1O (stereo partly shown)
II: OC[C@H]1O[C@H](O[C@H]2[C@H](O)[C@@H](O)[C@@H](O[C@H]3[C@H](O)[C@@H](O)C(O)O[C@@H]3CO)O[C@@H]2CO)[C@H](O)[C@@H](O)[C@@H]1O (stereo partly shown)
Compare Percentage of remaining substrate in reaction product: is it lower for I or for II ? Return value: the label identifying the chosen record. II
(II: 65.0%, I: 100.0%)

---

System: glucoamylase
Test details: Enzymatic hydrolysis by glucoamylase
Assay type: biochemical
Recorded conditions: 50 mg in 1 ml 50 mM acetate buffer pH 4.5, one unit glucoamylase, 40° C., 6 hours; HPLC
Method: Fifty mg aliquots of non-reducing saccharides P I, P II, P III, P IV and P V in Experiment 4 were respectively dissolved in one ml of 50 mM acetate buffer (pH 4.5), admixed with one unit of glucoamylase commercialized by Seikagaku-Kogyo Co., Ltd., Tokyo, Japan, to effect enzymatic hydrolysis at 40° C. for 6 hours. The only saccharides detected in every resultant mixture on HPLC analysis were glucose and trehalose.
Reported endpoint: Glucose (%)
Express the result in % but write the number alone.

>>> endpoint_result("OC[C@H]1O[C@H](O[C@H]2O[C@H](CO)[C@@H](O[C@H]3O[C@H](CO)[C@@H](O[C@H]4O[C@H](CO)[C@@H](O)[C@H](O)[C@H]4O)[C@H](O)[C@H]3O)[C@H](O)[C@H]2O)[C@H](O)[C@@H](O)[C@@H]1O")
52.0

Query the reported Glucose for glucoamylase; item: OC[C@H]1O[C@H](O[C@H]2O[C@H](CO)[C@@H](O[C@H]3O[C@H](CO)[C@@H](O[C@H]4O[C@H](CO)[C@@H](O[C@H]5O[C@H](CO)[C@@H](O)[C@H](O)[C@H]5O)[C@H](O)[C@H]4O)[C@H](O)[C@H]3O)[C@H](O)[C@H]2O)[C@H](O)[C@@H](O)[C@@H]1O 61.4

Query the reported Glucose for glucoamylase; item: OC[C@H]1O[C@H](O[C@H]2O[C@H](CO)[C@@H](O[C@H]3O[C@H](CO)[C@@H](O[C@H]4O[C@H](CO)[C@@H](O[C@H]5O[C@H](CO)[C@@H](O[C@H]6O[C@H](CO)[C@@H](O[C@H]7O[C@H](CO)[C@@H](O)[C@H](O)[C@H]7O)[C@H](O)[C@H]6O)[C@H](O)[C@H]5O)[C@H](O)[C@H]4O)[C@H](O)[C@H]3O)[C@H](O)[C@H]2O)[C@H](O)[C@@H](O)[C@@H]1O 72.9

Query the reported Glucose for glucoamylase; item: OC[C@H]1O[C@H](O[C@H]2O[C@H](CO)[C@@H](O[C@H]3O[C@H](CO)[C@@H](O[C@H]4O[C@H](CO)[C@@H](O[C@H]5O[C@H](CO)[C@@H](O[C@H]6O[C@H](CO)[C@@H](O)[C@H](O)[C@H]6O)[C@H](O)[C@H]5O)[C@H](O)[C@H]4O)[C@H](O)[C@H]3O)[C@H](O)[C@H]2O)[C@H](O)[C@@H](O)[C@@H]1O 68.3

Query the reported Glucose for glucoamylase; item: OC[C@H]1O[C@H](O[C@H]2O[C@H](CO)[C@@H](O[C@H]3O[C@H](CO)[C@@H](O)[C@H](O)[C@H]3O)[C@H](O)[C@H]2O)[C@H](O)[C@@H](O)[C@@H]1O 36.2

---

Experimental system: α-amylase specimen derived from pig pancreas (Sus scrofa)
Construct: purchased Sigma Chemical Company, St. Louis, USA; host or cells: pig pancreas
Sequence (P00690 16-511): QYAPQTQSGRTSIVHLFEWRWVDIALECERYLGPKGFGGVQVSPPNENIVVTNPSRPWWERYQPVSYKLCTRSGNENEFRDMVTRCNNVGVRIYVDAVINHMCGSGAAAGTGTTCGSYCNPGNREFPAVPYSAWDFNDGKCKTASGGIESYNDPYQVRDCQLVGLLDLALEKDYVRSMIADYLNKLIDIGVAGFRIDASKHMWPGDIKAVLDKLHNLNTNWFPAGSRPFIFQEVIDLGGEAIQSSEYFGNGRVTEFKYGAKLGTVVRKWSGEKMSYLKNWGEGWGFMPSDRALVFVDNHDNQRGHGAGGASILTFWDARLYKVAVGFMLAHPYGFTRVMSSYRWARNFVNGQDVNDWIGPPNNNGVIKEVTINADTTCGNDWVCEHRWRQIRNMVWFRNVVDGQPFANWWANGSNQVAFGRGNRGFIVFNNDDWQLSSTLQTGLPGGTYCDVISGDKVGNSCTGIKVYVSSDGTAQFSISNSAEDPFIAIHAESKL
Test details: Hydrolysis by α-amylase
Assay type: biochemical
Parameters: unit not given here
Recorded conditions: α-amylase, 10 mg/ml, pH 6.9, 37° C., 18 hours; HPLC
Protocol: The enzymatic reaction with the α-amylase was as follows: Dissolving 10 mg of a substrate in one ml of 50 mM phosphate buffer (pH 6.9), mixing the resultant solution with one unit of the α-amylase, and incubating the resultant mixture at 37° C. for 18 hours. The enzymatic reaction with the α-glucosidase was conducted under the same conditions as in the case of α-amylase except that 50 mM acetate buffer (pH 4.0) was used as a buffer. […]
Reported Saccharide composition of hydrolysate: G1 (glucose) values for the following compounds.
In your answer, state the number alone without any accompanying words.

These solved cases illustrate the format of a correct answer.
>>> endpoint_result("OC[C@H]1O[C@H](O[C@H]2O[C@H](CO)[C@@H](O[C@H]3O[C@H](CO)[C@@H](O[C@H]4O[C@H](CO)[C@@H](O[C@H]5O[C@H](CO)[C@@H](O[C@H]6O[C@H](CO)[C@@H](O)[C@H](O)[C@H]6O)[C@H](O)[C@H]5O)[C@H](O)[C@H]4O)[C@H](O)[C@H]3O)[C@H](O)[C@H]2O)[C@H](O)[C@@H](O)[C@@H]1O [P IV, α-maltotetraosyl trehalose]")
1.6
>>> endpoint_result("OC[C@H]1O[C@H](O[C@H]2O[C@H](CO)[C@@H](O[C@H]3O[C@H](CO)[C@@H](O[C@H]4O[C@H](CO)[C@@H](O)[C@H](O)[C@H]4O)[C@H](O)[C@H]3O)[C@H](O)[C@H]2O)[C@H](O)[C@@H](O)[C@@H]1O [P II, α-maltosyl trehalose]")
0
>>> endpoint_result("OC[C@H]1O[C@H](O[C@H]2O[C@H](CO)[C@@H](O[C@H]3O[C@H](CO)[C@@H](O[C@H]4O[C@H](CO)[C@@H](O[C@H]5O[C@H](CO)[C@@H](O[C@H]6O[C@H](CO)[C@@H](O[C@H]7O[C@H](CO)[C@@H](O)[C@H](O)[C@H]7O)[C@H](O)[C@H]6O)[C@H](O)[C@H]5O)[C@H](O)[C@H]4O)[C@H](O)[C@H]3O)[C@H](O)[C@H]2O)[C@H](O)[C@@H](O)[C@@H]1O [P V, α-maltopentaosyl trehalose]")
1.0
>>> endpoint_result("OC[C@H]1O[C@H](O[C@H]2O[C@H](CO)[C@@H](O[C@H]3O[C@H](CO)[C@@H](O)[C@H](O)[C@H]3O)[C@H](O)[C@H]2O)[C@H](O)[C@@H](O)[C@@H]1O [P I, α-glucosyl trehalose]")
0

Next item in the queue.
Could you share which Saccharide composition of hydrolysate: G1 (glucose) value was measured for OC[C@H]1O[C@H](O[C@H]2O[C@H](CO)[C@@H](O[C@H]3O[C@H](CO)[C@@H](O[C@H]4O[C@H](CO)[C@@H](O[C@H]5O[C@H](CO)[C@@H](O)[C@H](O)[C@H]5O)[C@H](O)[C@H]4O)[C@H](O)[C@H]3O)[C@H](O)[C@H]2O)[C@H](O)[C@@H](O)[C@@H]1O [P III, α-maltotriosyl trehalose] ? 1.2

---

Tested on: glucoamylase
Test details: Enzymatic hydrolysis by glucoamylase
Type: biochemical
Recorded conditions: 50 mg in 1 ml 50 mM acetate buffer pH 4.5, one unit glucoamylase, 40° C., 6 hours; HPLC
Reported Trehalose values for the following compounds.
Express the result in % but write the number alone.

>>> endpoint_result("OC[C@H]1O[C@H](O[C@H]2O[C@H](CO)[C@@H](O[C@H]3O[C@H](CO)[C@@H](O[C@H]4O[C@H](CO)[C@@H](O[C@H]5O[C@H](CO)[C@@H](O[C@H]6O[C@H](CO)[C@@H](O)[C@H](O)[C@H]6O)[C@H](O)[C@H]5O)[C@H](O)[C@H]4O)[C@H](O)[C@H]3O)[C@H](O)[C@H]2O)[C@H](O)[C@@H](O)[C@@H]1O [P IV, α-maltotetraosyl trehalose]")
31.7

Next item in the queue.
Could you share which Trehalose value was measured for OC[C@H]1O[C@H](O[C@H]2O[C@H](CO)[C@@H](O[C@H]3O[C@H](CO)[C@@H](O[C@H]4O[C@H](CO)[C@@H](O[C@H]5O[C@H](CO)[C@@H](O[C@H]6O[C@H](CO)[C@@H](O[C@H]7O[C@H](CO)[C@@H](O)[C@H](O)[C@H]7O)[C@H](O)[C@H]6O)[C@H](O)[C@H]5O)[C@H](O)[C@H]4O)[C@H](O)[C@H]3O)[C@H](O)[C@H]2O)[C@H](O)[C@@H](O)[C@@H]1O [P V, α-maltopentaosyl trehalose] ? 27.1

Cited source: patent US5922580A
